Target: ATP synthase subunit c (Bacillus sp.)
Sequence (P00845 whole entry): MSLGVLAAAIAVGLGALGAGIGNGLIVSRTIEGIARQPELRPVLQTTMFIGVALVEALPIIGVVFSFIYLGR
Test: Binding affinity to Bacillus PS3 ATP synthase subunit c
pKd: −log10 of the molar value.

Chemical structure: COc1nc2ccc(Br)cc2cc1[C@@H](c1ccccc1)[C@@](O)(CCN(C)C)c1cccc2ccccc12
pKd: 6.30
